Assign kon to each entry below.
- target.or.system: T1, Human ALPPL2 (leucine zipper) (human)
- T1 construct: Whole entry: fused with a cysteine stabilised leucine zipper and His tag; also called hALPPL2
- T1 chain: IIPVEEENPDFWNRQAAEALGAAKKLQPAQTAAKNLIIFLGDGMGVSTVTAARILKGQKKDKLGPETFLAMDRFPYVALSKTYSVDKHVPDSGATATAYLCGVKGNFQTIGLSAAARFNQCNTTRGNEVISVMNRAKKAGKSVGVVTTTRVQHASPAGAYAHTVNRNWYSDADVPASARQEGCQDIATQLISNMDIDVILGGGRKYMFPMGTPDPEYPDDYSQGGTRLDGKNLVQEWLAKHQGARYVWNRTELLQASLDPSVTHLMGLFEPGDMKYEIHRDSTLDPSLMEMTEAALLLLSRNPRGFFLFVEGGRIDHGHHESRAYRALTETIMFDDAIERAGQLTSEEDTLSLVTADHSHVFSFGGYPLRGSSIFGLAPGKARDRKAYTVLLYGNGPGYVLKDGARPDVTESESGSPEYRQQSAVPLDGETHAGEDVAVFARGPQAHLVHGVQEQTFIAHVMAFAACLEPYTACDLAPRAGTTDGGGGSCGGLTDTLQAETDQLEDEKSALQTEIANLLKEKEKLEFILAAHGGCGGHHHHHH
- procedure.summary: BLI, antigen immobilised
Returns: string containing the number followed by the unit.

Given the entry E10 His (VHH, not shown: small tags and cut ends, also called #265) VHH: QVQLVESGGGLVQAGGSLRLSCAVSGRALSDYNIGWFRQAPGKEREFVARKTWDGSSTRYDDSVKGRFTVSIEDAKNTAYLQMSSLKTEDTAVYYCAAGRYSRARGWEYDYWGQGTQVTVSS , report its measured kon. 1.64e+06 M⁻¹ s⁻¹

Given the entry A06 His (VHH, not shown: small tags and cut ends, also called #250) VHH: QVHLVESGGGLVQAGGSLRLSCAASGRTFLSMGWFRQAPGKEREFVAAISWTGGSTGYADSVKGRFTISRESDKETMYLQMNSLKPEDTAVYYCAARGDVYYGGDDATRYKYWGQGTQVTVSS , report its measured kon. 133000 M⁻¹ s⁻¹

Given the entry B01 His (VHH, not shown: small tags and cut ends) VHH: QVQLVESGGGLVQAGGSLRLSCEVTRSPMPIDTMAWYRQAPGRQRELVAIISRSGSTNYADSVKGRFTISRNDTKSTMYKSTMYLKMNTLELEDTGVYYCNAVGLWNGAEYWGQGTQVTVSS , report its measured kon. 482000 M⁻¹ s⁻¹

Given the entry D10 His (VHH, not shown: small tags and cut ends) VHH: QVQLVESGGGLVQPGGSLRLSCAASGSIFSVNTMGWYRQAPGKQRDLVAVATSGGTIHYADSVKGRFTISRDNAKNTVYLQMNSLKPEDTAVYYCNLVVPYGMIAGDHDYWGQGTKVTVSS , report its measured kon. 2.3e+06 M⁻¹ s⁻¹

src = patent US20260216242A1
